As shown below, each of these molecules has a reported GLC value.
organism: Rattus norvegicus; experiment: Open TG-GATES - Regimen: Single; format: toxicity, organism-based, Sprague-Dawley; design: regimen Single, gender Male, age 6 weeks; settings: in vivo, po, 0 mg/kg, 24 h, tissue Plasma, route gavage, dose level Control
Answer format: number, then unit.

{"columns": ["MOLECULE", "ASSAY RESULT"],
 "data": [
  ["Cc1nnc2n1-c1ccc(Cl)cc1C(c1ccccc1Cl)=NC2", "178.4 mg/dL"],
  ["CN/C(=N/CCSCc1nc[nH]c1C)NC#N", "223.8 mg/dL"],
  ["O=C(OC[C@H]1O[C@@H](OC(=O)c2cc(O)c(O)c(OC(=O)c3cc(O)c(O)c(O)c3)c2)[C@H](OC(=O)c2cc(O)c(O)c(OC(=O)c3cc(O)c(O)c(O)c3)c2)[C@@H](OC(=O)c2cc(O)c(O)c(OC(=O)c3cc(O)c(O)c(O)c3)c2)[C@@H]1OC(=O)c1cc(O)c(O)c(OC(=O)c2cc(O)c(O)c(O)c2)c1)c1cc(O)c(O)c(OC(=O)c2cc(O)c(O)c(O)c2)c1", "190.6 mg/dL"],
  ["Brc1ccccc1", "187.4 mg/dL"],
  ["CNC(=C[N+](=O)[O-])NCCSCc1ccc(CN(C)C)o1", "190.2 mg/dL"]
]}

### Prompt Which measured GLC value corresponds to CS(=O)(=O)O.Cc1ccc(NC(=O)c2ccc(CN3CCN(C)CC3)cc2)cc1Nc1nccc(-c2cccnc2)n1 [IMATINIB MESYLATE] ?
### Response 199.8 mg/dL

The reported numbers originate from ChEMBL document CHEMBL3885861.
